Answer each item with its documented pIC50.
- Tested on: Aβ40 in conditioned medium of cells expressing amyloid precursor protein
- Assay Explanation: In vitro BACE cell-based assay (HEK cell assay, Aβ40 sandwich ELISA)
- Recorded Conditions: Homo sapiens, HEK293; average IC50; Aβ40 after 24 h incubation
Keep it numeric: pIC50 is minus log10 of the concentration in mol/L.

Query: Reported pIC50 for NC1=NC2(c3cc(-c4cccnc4F)ccc3Oc3c2cc(Cl)nc3F)c2ccccc21 (stereo not shown) : what is it?
Response: 6.65

Query: Field request: pIC50 | item: NC1=N[C@]2(c3cc(-c4cccnc4F)ccc3Oc3c2cc(Cl)nc3F)c2cccnc21 [Example 17d-2]
Response: 5.80

* * *

- Tested on: Aβ40 in conditioned medium of cells expressing amyloid precursor protein
- Assay Explanation: In vitro BACE cell-based assay (HEK cell assay, Aβ40 sandwich ELISA)
- Recorded Conditions: Homo sapiens, HEK293; average IC50; Aβ40 after 24 h incubation
Value Type: IC50

Query: # get_value(readout= IC50, system= Aβ40 in conditioned medium of cells expressing amyloid precursor protein) for NC1=N[C@]2(c3cc(-c4cccnc4F)ccc3Oc3c2cc(Cl)nc3F)c2cnccc21 [Example 14d-2]
Response: 35.5 nM

Query: Look up IC50 with Aβ40 in conditioned medium of cells expressing amyloid precursor protein for this molecule: NC1=NC2(c3cc(-c4cccnc4F)ccc3Oc3cnc(-c4ccnc(F)c4)cc32)c2ncccc2O1 (stereo not shown)
Response: 805 nM

Query: What IC50 appears in the records for this molecule with Aβ40 in conditioned medium of cells expressing amyloid precursor protein? NC1=N[C@]2(c3cc(Br)ccc3Oc3c2cc(Cl)nc3F)c2cnccc21 (single isomer, unassigned) [Example 14c-2]
Response: > 10000 nM

Query: Query IC50 on Aβ40 in conditioned medium of cells expressing amyloid precursor protein for NC1=N[C@@]2(c3cc(-c4cccnc4F)ccc3Oc3c2cc(Cl)nc3F)c2cnccc21 [Example 14d-1]
Response: > 10000 nM

* * *

- Tested on: Aβ40 in conditioned medium of cells expressing amyloid precursor protein
- Assay Explanation: In vitro BACE cell-based assay (HEK cell assay, Aβ40 sandwich ELISA)
- Recorded Conditions: Homo sapiens, HEK293; average IC50; Aβ40 after 24 h incubation
Hi there, I'd appreciate the recorded pIC50 for every entry that follows.
Keep in mind that pIC50 stands for -log10 of concentration in molar terms.

Query: Would you kindly share the measured pIC50 for NC1=NC2(c3cc(-c4cccnc4F)ccc3Oc3c2cc(Cl)nc3F)c2cccnc21 (centres unmarked) [Example 17d, 2,2,2-trifluoroacetate] ?
Response: 5.36

Query: Using the record for NC1=NC2(c3cc(-c4cccnc4F)ccc3Oc3cnc(C4CCOCC4)cc32)c2ccccc21 (racemic) , report its pIC50.
Response: 7.89

Query: For NC1=NC2(c3cc(-c4cccnc4F)ccc3Oc3cnc(C4=CCOCC4)cc32)c2ccccc21 (racemic) , what is its reported pIC50?
Response: 7.92

Query: # pIC50 lookup, item NC1=N[C@@]2(c3cc(-c4cccnc4F)ccc3Oc3c2cc(-c2ccnc(F)c2)nc3F)c2ccccc21 (single isomer, unassigned)
Response: 5.73

Query: For the compound shown here, NC1=N[C@]2(c3cc(-c4cccnc4F)ccc3Oc3c2cc(C2=CCCOC2)nc3F)c2cnccc21 , give the reported pIC50.
Response: 8.70

Query: Fill blank: measured pIC50 of the compound NC1=NC2(c3cc(-c4cccnc4F)ccc3Oc3cnc(Cl)cc32)c2ccccc21 (racemic) [Example 10d] is ____.
Response: 6.85

Query: I would be grateful if you could share the reported pIC50 for NC1=N[C@]2(c3cc(-c4cccnc4F)ccc3Oc3c2cc(C2=CCCOC2)nc3F)c2ccccc21 (single isomer, unassigned) .
Response: 8.30

Query: Given the entry NC1=NC2(c3cc(-c4cccnc4F)ccc3Oc3cnc(-c4ccnc(F)c4)cc32)c2ccccc21 (racemic) , report its measured pIC50.
Response: 7.92

Query: Endpoint output: pIC50 of NC1=NC2(c3cc(-c4cccnc4F)ccc3Oc3c2cc(Cl)nc3F)c2cnccc21 (centres unmarked) [Example 14d] . Value?
Response: 6.11
